Tested on: Sphaerotheca fuliginea
Assay: whole plant or invertebrate
Assay type: in vivo
Conditions: Podosphaera fuliginea, in Cucumis sativus, 240 h, read-out: % Efficacy
Measured quantity: pest or weed control at 2 g/ha (%)

INSERT INTO measurements (compound, reported_measurement) VALUES
  ('CO/N=C(/C1=NOCCO1)c1ccccc1Oc1ncnc(Oc2ccccc2Cl)c1F [Compound of the formula (LXXII) (71)]', 43),
  ('CO/N=C(/C(=O)OC)c1ccccc1CO/N=C(\C)c1cccc(C(F)(F)F)c1 [trifloxystrobin (LXXVI) (75), trifloxystrobin]', 43),
  ('CO/C=C(/C(=O)OC)c1ccccc1COc1cccc(C(F)(F)F)n1 [picoxystrobin (LXXXIII) (82), picoxystrobin]', 0),
  ('Cc1ccc(C(C)NC(=O)[C@@H](NC(=O)OC(C)C)C(C)C)cc1 (some centres unmarked) [iprovalicarb (LI) (50), iprovalicarb]', 0),
  ('CO/N=C(/C(=O)OC)c1ccccc1COc1ccccc1C [kresoxim-methyl (XVI) (15), kresoxim-methyl]', 0);

Data credit: patent US20030229087A1
